system under test: His-LAMA4 as used in Example 6 (species not stated) (Homo sapiens (Human)) (UniProt Q16363)
protocol notes: ForteBio BLI, LAMA-His on anti-His sensor, antibody 33.3 nM
measured property: kon (M⁻¹ s⁻¹)
Provide the reading as a plain figure in M⁻¹ s⁻¹.

The cases that follow already have their kon on record.
humanized 19C12 antibody H3L6 (antibody, V domains shown) VH: EVQLQQSGAELVKPGASVKVSCKASGYAFSTYWMNWVRQAPGQGLEWIGQIYPGDGDTNYNGKFKGRVTITADKSTSTAYMELSSLRSEDTAVYFCARSDGYYDYWGQGTTVTVSS VL: DIVLTQSPASLAVSLGERATISCRASESVDSYGTSFMHWYQQKPGQPPKLLISLASSLESGVPARFSGSGSGTDFTLTISPVEAEDAATYYCQQNNEDPPTFGAGTKLEIKR | 4.89e+06
humanized 19C12 antibody H2L4 (antibody, V domains shown) VH: QVQLQQSGAELVKPGASVKVSCKASGYAFSTYWMNWVRQAPGQGLEWIGQIYPGDGDTNYNGKFKGRVTITADKSTSTAYMELSSLRSEDTAVYFCARSDGYYDYWGQGTTVTVSS VL: NIVLTQSPASLAVSLGERATISCRASESVDSYGTSFMHWYQQKPGQPPKLLISLASSLESGVPARFSGSGSGTDFTLTISPVEAEDAATYYCQQNNEDPPTFGAGTKLEIKR | 4.87e+06
chimeric 19C12 antibody (antibody, V domains shown) VH: QVQLQQSGAELVKPGASVKISCKASGYAFSTYWMNWVKQRPGEGLEWIGQIYPGDGDTNYNGKFKGKATLTADKSSSTAYMQLSSLTSEDSAVYFCARSDGYYDYWGQGTTLTVSS VL: NIVLTQSPASLAVSLGQRATISCRASESVDSYGTSFMHWYQQKPGQPPKLLICLASSLESGVPARFSGSGSRTDFTLTIDPVEADDAATYYCQQNNEDPPTFGAGTKLELKR | 4.37e+06
humanized 19C12 antibody H2L3 (antibody, V domains shown) VH: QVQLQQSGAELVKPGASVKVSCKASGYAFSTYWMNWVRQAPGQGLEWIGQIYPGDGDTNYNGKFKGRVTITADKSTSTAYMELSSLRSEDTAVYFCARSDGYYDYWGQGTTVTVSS VL: NIVLTQSPASLAVSLGERATISCRASESVDSYGTSFMHWYQQKPGQPPKLLICLASSLESGVPARFSGSGSRTDFTLTIDPVEAEDAATYYCQQNNEDPPTFGAGTKLEIKR | 4.29e+06

Now look at this entry.
Sample humanized 19C12 antibody H2L6 (antibody, V domains shown) VH: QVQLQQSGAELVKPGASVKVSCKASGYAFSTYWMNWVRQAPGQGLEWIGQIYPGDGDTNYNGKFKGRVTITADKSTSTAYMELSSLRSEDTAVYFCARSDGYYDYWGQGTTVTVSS VL: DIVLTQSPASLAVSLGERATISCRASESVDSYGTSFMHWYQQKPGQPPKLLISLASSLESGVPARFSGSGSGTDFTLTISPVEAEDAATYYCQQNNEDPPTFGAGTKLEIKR — what was its kon? 4.75e+06
